Each item that follows carries a reported MIC.
# Tested on: S. typhimurium ATCC 14028
# Experiment summary: MIC assay, S. typhimurium ATCC 14028
# Assay type: cell-based
# Particulars: two-fold dilution in 96-well plates, MHB, 2-7 × 10^5 CFU/mL, 18–24 h, 37 °C
Where no end group is shown, it is not given here.
Metric: MIC (µM)

| Substance | System under test | Metric | Unit abbreviation | Censoring qualifier | Numeric result |
| --- | --- | --- | --- | --- | --- |
| WIKAAAKAAAKIW-NH2 [WI] | S. typhimurium ATCC 14028 | MIC | µM | = | 32 |
| WWKAAAKAAAKWW-NH2 [WW] | S. typhimurium ATCC 14028 | MIC | µM | = | 8 |
| WFKAAAKAAAKFW-NH2 [WF] | S. typhimurium ATCC 14028 | MIC | µM | = | 32 |
| WVKAAAKAAAKVW-NH2 [WV] | S. typhimurium ATCC 14028 | MIC | µM | > | 128 |

====

# Test system: human embryonic kidney cells (HEK293T)
# Experiment summary: MTT cytotoxicity assay, HEK293T
# Format: cell-based
# Particulars: peptide 64 μM, 18–24 h, 37 °C, OD 570 nm, n = 3
Where no end group is shown, it is not given here.
Each item that follows carries a reported cell survival rate.

| Substance | cell survival rate |
| --- | --- |
| WWKAAAKAAAKWW-NH2 [WW] | 43% |
| WVKAAAKAAAKVW-NH2 [WV] | 93% |
| WFKAAAKAAAKFW-NH2 [WF] | 91% |
| WIKAAAKAAAKIW-NH2 [WI] | 96% |

====

Each item that follows carries a reported MHC5 (minimum hemolysis concentration 5%).
# Test system: human red blood cells (hRBCs)
# Experiment summary: Hemolytic activity assay
# Format: cell-based
# Particulars: lowest peptide concentration that induces 5% hemolysis; hRBCs in PBS pH 7.4, 1 h, 37 °C, OD570
Where no end group is shown, it is not given here.
Metric: MHC5 (minimum hemolysis concentration 5%) (µM)

| Substance | Censoring qualifier | Numeric result |
| --- | --- | --- |
| WIKAAAKAAAKIW-NH2 [WI] | = | 256 |
| WFKAAAKAAAKFW-NH2 [WF] | = | 256 |
| WWKAAAKAAAKWW-NH2 [WW] | = | 256 |
| WVKAAAKAAAKVW-NH2 [WV] | > | 256 |

====

# System: murine macrophage cell line (RAW264.7)
# Experiment summary: MTT cytotoxicity assay, RAW264.7
# Format: cell-based
# Particulars: RAW264.7, peptide 64 μM, 18–24 h, 37 °C, OD 570 nm, n = 3
Where no end group is shown, it is not given here.
Metric: cell survival rate (%)

| Substance | Metric | Numeric result |
| --- | --- | --- |
| WVKAAAKAAAKVW-NH2 [WV] | cell survival rate | 93 |
| WFKAAAKAAAKFW-NH2 [WF] | cell survival rate | 92 |
| WWKAAAKAAAKWW-NH2 [WW] | cell survival rate | 63 |
| WIKAAAKAAAKIW-NH2 [WI] | cell survival rate | 100 |
